These entries and their values trace back to patent US20240398942A1.

- TARGET_OR_TEST_SYSTEM: T1, full-length human CD40 on 293T-NF-κB-Luc-CD40 reporter cells (human, UniProt P25942 21-277)
- T1 construct: Stably expressed full-length human CD40; also called uniprot P25942-1
- T1 sequence (P25942 21-277 limits assumed): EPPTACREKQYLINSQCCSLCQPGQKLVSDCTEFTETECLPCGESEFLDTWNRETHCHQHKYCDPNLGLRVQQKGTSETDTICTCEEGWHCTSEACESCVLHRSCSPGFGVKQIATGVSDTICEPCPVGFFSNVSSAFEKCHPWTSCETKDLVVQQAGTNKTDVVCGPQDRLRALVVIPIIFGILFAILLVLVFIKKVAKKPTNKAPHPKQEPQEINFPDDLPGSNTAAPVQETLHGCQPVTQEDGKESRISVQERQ
- TEST_DETAILS: flow cytometry (FACS) on 293T-CD40 cells stably expressing full-length human CD40, PE-labeled goat anti-human IgG Fc, MFI

[
  {
    "BINDER": "mouse anti-CD40 monoclonal antibody C1H1 (antibody, V domains shown, Parent mouse antibody from a hybridoma; the mouse constant regions are not; also called Mouse C1H1) VH: EVKLVESGGGLVKPGASLKLSCAASGFTFSNYGISWVRQTSDKRLEWVASISSGGDNTYYPDNVKGRFTISRENAKNTLYLQMSSLKSEDTALYYCARAGEKAMDYWGQGTSVTVSS VL: DIVLTQSPVTLSVTPGDSVSLSCRASQTINNNLHWYQQKSHESPRLLIKYASQSISGIPSRFSGSGSGTDFTLSINSVETEDFGIYFCQQFSSWPLTFGAGTKLELK",
    "EC50 (nM)": 1.44
  },
  {
    "BINDER": "humanized antibody huC1H1-V1 (antibody, human IgG2, kappa, V domains shown, Human IgG2 / kappa) VH: EVQLVESGGGLVKPGGSLRLSCAASGFTFSNYGISWVRQAPGKGLEWVASISSGGDNTYYPDNVKGRFTISRDNAKNSLYLQMNSLRAEDTAVYYCARAGEKAMDYWGQGTLVTVSS VL: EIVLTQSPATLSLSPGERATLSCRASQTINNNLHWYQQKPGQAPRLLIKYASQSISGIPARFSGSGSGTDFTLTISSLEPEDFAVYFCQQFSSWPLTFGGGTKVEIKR",
    "EC50 (nM)": 4.95
  },
  {
    "BINDER": "chimeric antibody C1H1 (antibody, human IgG1, kappa, V domains shown, also called Chimeric C1H1) VH: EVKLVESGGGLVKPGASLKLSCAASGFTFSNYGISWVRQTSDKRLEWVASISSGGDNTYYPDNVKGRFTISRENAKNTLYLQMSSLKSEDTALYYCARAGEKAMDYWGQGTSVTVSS VL: DIVLTQSPVTLSVTPGDSVSLSCRASQTINNNLHWYQQKSHESPRLLIKYASQSISGIPSRFSGSGSGTDFTLSINSVETEDFGIYFCQQFSSWPLTFGAGTKLELKR",
    "EC50 (nM)": 2.13
  },
  {
    "BINDER": "humanized antibody huC1H1-V2 (antibody, human IgG2, kappa, V domains shown, Human IgG2 / kappa) VH: EVQLVESGGGLVKPGGSLRLSCAASGFTFSNYGISWVRQAPGKGLEWVSSISSGGDNTYYPDNVKGRFTISRDNAKNSLYLQMNSLRAEDTAVYYCARAGEKAMDYWGQGTLVTVSS VL: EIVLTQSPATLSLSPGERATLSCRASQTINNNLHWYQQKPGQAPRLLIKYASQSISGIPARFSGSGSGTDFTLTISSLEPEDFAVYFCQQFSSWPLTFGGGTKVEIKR",
    "EC50 (nM)": 4.64
  }
]
